- System: HEK293
- assay procedure: Inhibition of TGFbeta/Smad in TGFbeta-2/activin A-stimulated HEK293 cells preincubated at 2.5 uM for 2 hrs before stimulation measured after 20 to 22 hrs by firefly/renilla luciferase reporter assay
- Format: cell-based
- recorded conditions: Homo sapiens
Would you kindly list inhibition for each of these compounds?
Put down the number, then write its unit next to it.

>>> df
                                   compound  measured_value
0  CCN1CC2=C(C1=O)C(c1ccc(-c3ccccc3)cc1)C1=C(CC(C)(C)CC1=O)N2 (centres undefined)             25%
1  COC(=O)C1=C(C)NC2=C(C(=O)CC(C)C2)C1c1ccc(-c2ccccc2)cc1 (centres undefined)             21%
2  CCOC(=O)C1=C(C)NC2=C(C(=O)CC(C)(C)C2)C1c1ccc(-c2ccncc2)cc1 (centres undefined)             27%
3  CCOC(=O)C1=C(N)NC2=C(C(=O)CC(C)(C)C2)C1c1ccc(-c2ccccc2)cc1 (centres undefined)             61%
4  CCOC(=O)C1=C(C)NC2=C(C(=O)CC(C)(C)C2)C1c1ccc(O)c(OC)c1 (centres undefined)              8%

Hey, quick one: what's inhibition for each of these?
1. CCCC(=O)C1=C(C)NC2=C(C(=O)CC(C)(C)C2)C1c1ccc(-c2ccccc2)cc1 (centres undefined)
2. CCCOCCOC(=O)C1=C(C)NC2=C(C(=O)CC(C)(C)C2)C1c1ccc(-c2ccccc2)cc1 (centres undefined)

1: 84%; 2: 0%

Hey, quick one: what's inhibition for each of these?
1. CCOC(=O)C1=C(C)NC2=C(C(=O)CC(C)(C)C2)C1c1ccccc1 (centres undefined)
2. CCOC(=O)C1=C(C)NC2=C(C(=O)CC(C)(C)C2)C1c1ccc(-c2ccc(C#N)cc2)cc1 (centres undefined)

2%
52%

* * *

Would you kindly list inhibition for each of these compounds?
- Tested on: HEK293
- assay procedure: Inhibition of TGFbeta/Smad in TGFbeta-2/activin A-stimulated HEK293 cells preincubated at 2.5 uM for 2 hrs before stimulation measured after 20 to 22 hrs by firefly/renilla luciferase reporter assay
- Assay type: cell-based
- recorded conditions: Homo sapiens
One number for each entry, in %.

Sample records with inhibition:
In [3]: df
Out[3]:
                                   compound  target_of_assay  unit_of_measurement  measured_value
0  CC1=C(C(=O)OC2CCCC2)C(c2ccc(-c3ccccc3)cc2)C2=C(CC(C)(C)CC2=O)N1 (centres undefined)           HEK293                    %              77
1  CCOC(=O)C1=C(C)NC2=C(C(=O)CC(C)(C)C2)C1c1ccc(-c2ccc(C)cc2)cc1 (centres undefined)           HEK293                    %              94
2  CC1(C)CC(=O)C2=C(C1)NC1=C(C(=O)CC(C)(C)C1)C2c1ccccc1           HEK293                    %              21
3  CCCCCCCCCCCCOC(=O)C1=C(C)NC2=C(C(=O)CC(C)(C)C2)C1c1ccc(-c2ccccc2)cc1 (centres undefined)           HEK293                    %               0
4  CCCOC(=O)C1=C(C)NC2=C(C(=O)CC(C)(C)C2)C1c1ccc(-c2ccccc2)cc1 (centres undefined)           HEK293                    %              93

Hey, quick one: what's inhibition for each of these?
1. CCOC(=O)C1=C(C)NC2=C(C(=O)NCC2)C1c1ccc(-c2ccccc2)cc1 (centres undefined)
2. CCOC(=O)C1=C(C)NC2=C(C(=O)CC(C)(C)C2)C1c1ccc(-c2ccccc2)cc1 (centres undefined)
3. CCOC(=O)C1=C(C)NC2=C(C(=O)CC(C)(C)C2)C1c1cc(OC)c(OC)c(OC)c1 (centres undefined)
4. CC1=C(C(=O)OC(C)C)C(c2ccc(-c3ccccc3)cc2)C2=C(CC(C)(C)CC2=O)N1 (centres undefined)

[21, 83, 5, 85]
